# Procedure details: qHTS RealTime-Glo MT Cell Viability Assay in HepG2 cells - 8 hour (AID 1224873); further: nearly all actives have a fitted effect of over 55% in size
# Assay conditions: RealTime-Glo luminescence; series mostly up to 76.8 µM
Records with an inconclusive call do not appear. The source made the active and inactive calls. The call rests on the fitted dose curve; in most records, active means well fitted cell-killing curve with a large enough effect in the repeat runs; inconclusive means weak or mixed curves; inactive means flat fitted curve, though single readings scatter.
Outcomes you can answer with include only these: active, inactive

Answer briefly: the call reported for Nc1ccc([N+](=O)[O-])cc1Cl in this assay. inactive

Answer briefly: the call reported for Oc1cc(Cl)c(Cl)c(Cl)c1 in this assay. inactive

Answer briefly: the call reported for C[C@]12CC[C@H](O)C[C@H]1CC[C@@H]1[C@@H]2C[C@@H](O)[C@]2(C)[C@@H](C3=CC(=O)OC3)CC[C@]12O in this assay. inactive

Answer briefly: the call reported for Clc1ccc(-c2ccccc2)cc1 in this assay. inactive

Answer briefly: the call reported for CCCCOP(=O)(CCCC)OCCCC in this assay. inactive

Answer briefly: the call reported for O=C(CCl)Nc1ccccc1 in this assay. inactive

Answer briefly: the call reported for N#Cc1ccccc1Cl in this assay. inactive

Answer briefly: the call reported for CC(C)(C)C(O)C(Oc1ccc(-c2ccccc2)cc1)n1cncn1 (stereo unspecified) in this assay. inactive

Answer briefly: the call reported for C=CC(=O)OCC(COC(=O)C=C)(COC(=O)C=C)COC(=O)C=C in this assay. active

Answer briefly: the call reported for CCOCCOC(C)=O in this assay. inactive

Answer briefly: the call reported for CC1(C)CC/C(=C/c2ccc(Cl)cc2)C1(O)Cn1cncn1 (stereo unspecified) in this assay. inactive

Answer briefly: the call reported for COP(=S)(OC)Oc1cc(Cl)c(Br)cc1Cl in this assay. inactive

Answer briefly: the call reported for CC(C)CBr in this assay. inactive

Answer briefly: the call reported for CN(C)CCc1c[nH]c2cccc(O)c12 in this assay. inactive

====

# Procedure details: qHTS assay for small molecule agonists of the antioxidant response element (ARE) signaling pathway (AID 743202); further: potency means the concentration at half of the fitted maximal effect
# Assay conditions: HepG2 ARE-bla reporter, beta-lactamase FRET, 16 h; series mostly up to 73.3 µM
# Text: U.S. Tox21 Program National Center for Advancing Translational Sciences [NCATS] NIH Chemical Genomics Center [NCGC] U.S. Environmental Protection Agency [EPA] National Institutes of Environmental Health Sciences [NIEHS] National Toxicology Program [NTP] U.S. Food and Drug Administration [FDA] […] The activation of the report gene under culture conditions can be detected by fluorescence intensity. […]
Inconclusive results are not listed. The source made the active and inactive calls. Calls come from the whole dose curve; as a rule, active = well fitted activation curve with a large enough effect in the signal ratio in the repeat runs (not every such curve was filed as active); inconclusive = weak or mixed curves, or effect the other way; inactive = no such curve, though single readings can be large or run the other way; the % refers to the signal ratio.
Metric: Potency

Solved entries:
[
  {
    "Molecule": "CC(C)(C)c1cc([N+](=O)[O-])cc(C(C)(C)C)c1O",
    "Potency": "inactive"
  },
  {
    "Molecule": "COc1ccc(OC)c(CC(C)N)c1 (configuration not stated)",
    "Potency": "inactive"
  },
  {
    "Molecule": "c1ccc(OCC2CO2)cc1 (configuration not stated)",
    "Potency": "inactive"
  },
  {
    "Molecule": "O=c1oc2ccccc2c(O)c1Cc1c(O)c2ccccc2oc1=O",
    "Potency": "7.5 µM (active)"
  },
  {
    "Molecule": "CC(C)[C@H](C(=O)OC(C#N)c1cccc(Oc2ccccc2)c1)c1ccc(OC(F)F)cc1 (some centres not stated)",
    "Potency": "inactive"
  }
]

For record CCN the listed Potency is inactive

For record C[C@]12Cc3nonc3C[C@@H]1CC[C@@H]1[C@@H]2CC[C@@]2(C)[C@H]1CC[C@]2(C)O the listed Potency is 8.41 µM (active)

For record ClC(Cl)=C(Cl)Cl the listed Potency is inactive

For record CC1(C)[C@H](C(=O)O[C@H](C#N)c2cccc(Oc3ccccc3)c2)[C@@H]1/C=C(\Cl)C(F)(F)F the listed Potency is inactive

For record N#CNC#N the listed Potency is inactive

For record CC(C)CCCCCOC(=O)c1ccccc1C(=O)OCCCCCC(C)C the listed Potency is inactive

For record Nc1ccccc1C(=O)Oc1ccc2ccccc2c1 the listed Potency is 21.7 µM (active)

====

# Procedure details: qHTS assay to identify small molecule antagonists of the retinoic acid receptor (RAR) signaling pathway (AID 1159552; further: nearly all actives have a fitted effect of over 50% in size)
# Assay conditions: C3RL4 RARE luciferase reporter, retinol-stimulated, 6 h; series mostly up to 92.4 µM
Records with an inconclusive call do not appear. Activity calls are given as the source filed them. Calls come from the whole dose curve; as a rule, active = well fitted inhibition curve with a large enough effect in the repeat runs; inconclusive = weak or mixed curves, or effect the other way; inactive = no such curve, though single readings can be large or run the other way.
Outcomes you can answer with include only these: y (active), n (inactive)

Some solved cases for reference:
[
  {
    "Molecule": "ClC1=C(Cl)[C@]2(Cl)[C@@H]3[C@@H]4C[C@@H]([C@H]5O[C@@H]45)[C@@H]3[C@@]1(Cl)C2(Cl)Cl",
    "Label": "y"
  },
  {
    "Molecule": "C[C@]12CC[C@H]3[C@@H](CCC4=CC(=O)CC[C@@]43C)[C@@H]1CC[C@@H]2O",
    "Label": "y"
  },
  {
    "Molecule": "C[C@H]1CC[C@@H]2[C@@H](C)[C@H]3[C@H](C[C@H]4[C@@H]5CC=C6CC(O[C@@H]7O[C@H](CO)[C@H](O)[C@H](O[C@@H]8O[C@H](CO)[C@@H](O)[C@H](O)[C@H]8O)[C@H]7O[C@H]7O[C@@H](C)[C@H](O)[C@@H](O)[C@H]7O)CC[C@]6(C)[C@H]5CC[C@]34C)N2C1 (stereo not given in full)",
    "Label": "y"
  },
  {
    "Molecule": "Cc1cc(N=Nc2ccccc2C)ccc1N",
    "Label": "n"
  }
]

Now consider the entry below.
Answer briefly: the call reported for N#CCc1ccc(Cl)cc1 in this assay. n

====

# Procedure details: A CellTox Green Cytotoxicity Assay to monitor cytotoxicity in HepG2 cells - 8 hour (AID 1224890); further: nearly all actives have a fitted effect of over 45% in size
# Assay conditions: CellTox Green fluorescence; series mostly up to 76.8 µM
# Description: National Center for Advancing Translational Sciences [NCATS] NIH Chemical Genomics Center [NCGC] U.S. Environmental Protection Agency [EPA] National Institutes of Environmental Health Sciences [NIEHS] National Toxicology Program [NTP] Cell-based models are critical for drug discovery. […] Viable cells produce no appreciable increases in fluorescence. Therefore, the fluorescence signal produced by the binding interaction with dead cell DNA is proportional to cytotoxicity. […]
Inconclusive results are not listed. The source made the active and inactive calls. Calls follow the shape of the dose curve; as a rule, active = well fitted activation curve with a large enough effect in the repeat runs; inconclusive = weak or mixed curves; inactive = flat fitted curve, though single readings scatter.
Outcomes you can answer with include only these: True for active, False for inactive

[
  {
    "Molecule": "N#CNC#N",
    "Label": "False"
  }
]

Answer briefly: the call reported for C=CC(=O)OCC(COC(=O)C=C)(COC(=O)C=C)COC(=O)C=C in this assay. False

Answer briefly: the call reported for COP(=O)(OC)SCn1c(=O)oc2cc(Cl)cnc21 in this assay. False

Answer briefly: the call reported for ClC1=C(Cl)[C@]2(Cl)[C@H]3[C@H]([C@H]4C=C[C@H]3C4)[C@@]1(Cl)C2(Cl)Cl in this assay. False

Answer briefly: the call reported for O=C1C=CC(=O)c2ccccc21 in this assay. True

Answer briefly: the call reported for NC(=O)c1ccc(N)nc1 in this assay. False

Answer briefly: the call reported for CC1(C)[C@H](C(=O)O[C@H](C#N)c2cccc(Oc3ccccc3)c2)[C@@H]1/C=C(\Cl)C(F)(F)F in this assay. False

Answer briefly: the call reported for CCOP(=S)(OCC)SCCS(=O)(=O)CC in this assay. False

Answer briefly: the call reported for Oc1ccc(C2(c3ccc(O)cc3)CCCCC2)cc1 in this assay. False

Answer briefly: the call reported for O=[N+]([O-])c1cc(Cl)ccc1Cl in this assay. False

Answer briefly: the call reported for CCCCOCN(C(=O)CCl)c1c(CC)cccc1CC in this assay. False

Answer briefly: the call reported for Cl/C=C\CCl in this assay. False

Answer briefly: the call reported for Clc1ccc(CSC(Cn2ccnc2)c2ccc(Cl)cc2Cl)cc1 (stereo not drawn) in this assay. False

====

# Procedure details: qHTS assay to identify small molecule agonists of the peroxisome proliferator-activated receptor delta (PPARd) signaling pathway - cell viability counter screen (AID 743211); further: nearly all actives have a fitted effect of over 55% in size
# Assay conditions: PPARd-bla HEK293H viability, CellTiter-Glo luminescence, 17 h; series mostly up to 62.6 µM
Results filed as inconclusive are left out. Calls of active or inactive are those of the source. Calls come from the whole dose curve; as a rule, active = well fitted cell-killing curve with a large enough effect in the repeat runs; inconclusive = weak or mixed curves; inactive = no such curve, though single readings can be large or run the other way.
Outcomes you can answer with include only these: Yes = active, No = inactive

Some solved cases for reference:
[
  {
    "Compound": "CCOc1cc(C(C)(C)C)ccc1C1COC(c2c(F)cccc2F)=N1 (configuration not stated)",
    "Label": "Yes"
  },
  {
    "Compound": "CCCN(CCC)CCc1c[nH]c2ccccc12",
    "Label": "No"
  },
  {
    "Compound": "O=CC(Br)(Br)Br",
    "Label": "Yes"
  }
]

Answer briefly: the call reported for N#CC(Cl)Cl in this assay. No

Answer briefly: the call reported for CC(c1ccc(O)cc1)c1ccc(O)cc1 in this assay. No

Answer briefly: the call reported for CC(=O)[O-].[Tl+] in this assay. No

Answer briefly: the call reported for C[C@@H]1O[C@@H](O[C@@H]2C=C3CC[C@@H]4[C@H](CC[C@]5(C)[C@@H](c6ccc(=O)oc6)CC[C@]45O)[C@@]3(C)CC2)[C@H](O)[C@H](O)[C@H]1O in this assay. Yes
